test-target: human kappa opioid receptor (Homo sapiens, UniProt P41145)
Construct: expressed in transfected cells; host or cells: Chinese hamster ovary cells (CHO-hKOR), membranes
Sequence (P41145 whole entry): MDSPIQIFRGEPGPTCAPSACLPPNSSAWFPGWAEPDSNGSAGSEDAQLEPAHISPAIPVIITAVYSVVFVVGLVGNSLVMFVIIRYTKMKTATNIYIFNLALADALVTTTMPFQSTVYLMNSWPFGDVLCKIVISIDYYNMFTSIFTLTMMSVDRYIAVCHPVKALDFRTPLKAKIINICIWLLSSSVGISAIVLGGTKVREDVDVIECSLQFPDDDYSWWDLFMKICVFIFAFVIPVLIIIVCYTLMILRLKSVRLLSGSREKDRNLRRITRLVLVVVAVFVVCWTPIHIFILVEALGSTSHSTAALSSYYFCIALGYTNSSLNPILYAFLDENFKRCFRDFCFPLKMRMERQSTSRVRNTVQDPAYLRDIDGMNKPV
experimental-protocol: biochemical
In this section, each of the compounds is paired with its reported pEC50.
In plain terms, pEC50 is the concentration in mol/L turned into minus its base-10 logarithm.

| compound | test-target | pEC50 |
| --- | --- | --- |
| COC(=O)C1CC(NC(C)C)C(=O)C2C1(C)CCC1C(=O)OC(c3ccoc3)CC12C (stereo not drawn) [Compound 210a, 2-(N-isopropyl)-salvinorin] | human kappa opioid receptor (Homo sapiens, UniProt P41145) | 7.72 |

Attention now turns to another entry.
Lab note: measured pEC50 of COC(=O)[C@@H]1C[C@H](OC(=O)[C@H](C)N(C)C)C(=O)C2[C@@]1(C)CC[C@H]1C(=O)O[C@H](c3ccoc3)C[C@]21C (stereo partly drawn) [Compound 92] was 6.27
